The origin of these recorded values is paper PMC5916898.

biological target: KLF4 (Homo sapiens, UniProt O43474); experiment: competition; 150 mM NaCl, 50 mM Tris pH 8, 0.25% NP-40, 1 mM TCEP; 4 C, 2 h; 100 ug HeLa nuclear lysate; free competitor against 200 nM immobilised SP/KLF wild-type; conditions: protein: extract
Sequence (O43474 whole entry): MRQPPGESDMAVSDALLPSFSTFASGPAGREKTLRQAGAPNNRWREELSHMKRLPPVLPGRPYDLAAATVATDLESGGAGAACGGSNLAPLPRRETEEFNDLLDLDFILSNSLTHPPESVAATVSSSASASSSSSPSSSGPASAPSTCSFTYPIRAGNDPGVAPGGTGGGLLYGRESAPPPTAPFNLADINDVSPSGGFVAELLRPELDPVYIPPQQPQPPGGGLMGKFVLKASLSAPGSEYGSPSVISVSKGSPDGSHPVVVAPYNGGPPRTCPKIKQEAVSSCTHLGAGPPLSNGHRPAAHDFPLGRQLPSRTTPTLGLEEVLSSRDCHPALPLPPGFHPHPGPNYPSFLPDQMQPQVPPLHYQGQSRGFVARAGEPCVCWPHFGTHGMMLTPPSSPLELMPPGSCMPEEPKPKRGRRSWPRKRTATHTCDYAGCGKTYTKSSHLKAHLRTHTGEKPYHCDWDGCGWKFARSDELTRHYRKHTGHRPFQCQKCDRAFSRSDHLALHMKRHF
observation_type: IC50 (nM)

>>> numeric_value("SP/KLF wild-type (dsDNA) DNA 1: GAGAGCCCCGCCCCCTGGCT DNA 2: AGCCAGGGGGCGGGGCTCTC")
229
